- Test system: RAW-Dual
- Test Protocol: IRF Lucia reporter activity, fold change vs agonist alone; cytotoxicity flag (confluency mask): not cytotoxic; higher = enhanced IRF activity
- Conditions Used: agonist: 3'3'-cGAMP (STING) 10 ug/mL
The full ranking holds about 2,900 compounds; the median of “IRF Lucia reporter activity, fold change vs agonist alone” is about 0.9, and the highest 2% start at about 2.8. The entries come from a sample that favours the highest values as a whole.
Kindly state IRF Lucia reporter activity for each of the entries shown.
Answers are plain numbers.

Cc1ccc2nc(NCCN)c3ncc(C)n3c2c1 (library stock concentration (final ~1000-fold dilution): 10 mM) ... 2.21

For every item below, please supply its IRF Lucia reporter activity.
1. O=C(/C=C/c1ccc(O)c(O)c1)O[C@@H]1C[C@@](O)(C(=O)O)C[C@@H](O)[C@@H]1O (library stock concentration (final ~1000-fold dilution): 10 mM)
2. Cc1cnc(Nc2ccc(F)cc2Cl)nc1-c1c[nH]c(C(=O)NC(CO)c2cccc(Cl)c2)c1 (stereo not given) (library stock concentration (final ~1000-fold dilution): 10 mM)

1: 1.02; 2: 0.474

For every item below, please supply its IRF Lucia reporter activity.
1. CC1CC(C(=O)O)C2CCC3(C)C(=CCC4C5(C)CCC(O)C(C)(C)C5CCC43C)C2C1C (stereo not given) (library stock concentration (final ~1000-fold dilution): 10 mM)
2. CCn1c(=O)c(-c2cc(NC(=O)Nc3ccccc3)c(F)cc2Br)cc2cnc(NC)cc21 (library stock concentration (final ~1000-fold dilution): 10 mM)

1. 0.973
2. 0.671

Hey, just so you know, these numbers are from the supplement of paper PMC10037445.
